Consider the following binders and their measured hIZCD40L-driven Human B Cell Proliferation EC50 readings.
measured-on: T1, human isoleucine zipper-CD40L (IZ-hCD40L) (human, UniProt P29965 113-261)
T1 sequence: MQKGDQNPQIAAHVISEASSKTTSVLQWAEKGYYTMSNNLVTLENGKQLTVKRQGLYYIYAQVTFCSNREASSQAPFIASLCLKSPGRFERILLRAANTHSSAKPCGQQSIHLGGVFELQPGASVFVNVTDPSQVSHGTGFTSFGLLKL
protocol-summary: cell-based or functional assay

* BMS2h-725-9 (other) VH: EVQLLESGGGLVQPGGSLRLSCAASGFTFSAYTMGWVRQAPGMGLEWVSLIGDRGSWTYYADSVKGRFTISRDNSKNTLYLQMNSLRAEDTAVYYCAEPSDPTKFDYWGQGTLVTVSS | > 7 µM
* BMS2h-782 (other) VH: EVQLLESGGGLVQPGGSLRLSCAASGFTFDDAEMFWVRQAPGKGLEWVSSIDARGLTTYYADPVKGRFTISRDNSKNTLYLQMNSLRAEDTAVYYCAEATSAMYPFDYWGQGTLVTVSS | > 7 µM

Consider the additional binder presented here.
[Q] What value of measured hIZCD40L-driven Human B Cell Proliferation EC50 is listed for BMS2h-745-2 (other) VH: EVQLLESGGGLVQPGGSLRLSCAASGFTFDNTEMAWVRQAPGKGLEWVSGISEDGNRTYYADSVKGRFTISRDNSKNTLYLQMNSLRAEDSAVYYCAKIRNLHWDVGRQFVYWGQGTLVTVSS ?
[A] > 7 µM
